Hello, the source for this data is PubChem BioAssay AID1159506, in case you need it.

Test Description: Identification of proteins required for the processing of the EWS-FLI1 nascent transcript;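 also: robust z of luciferase light less the median z of siRNAs with the same seed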
Measurement Parameters: TC32 Ewing sarcoma NR0B1-luc vs CMV-luc (EWS-FLI1 target promoter against control promoter), 48 h; screened at 20 nM (by protocol)
The full ranking holds about 59,000 sequences; the median of the read-out is about -0.00055, and the lowest 2% start at about -2. The full list was thinned out, with the lowest values kept by preference.

[
  {
    "Residue Sequence": "AUCGAUUCCAUUUCAAGGC against SERHL",
    "seed-corrected z-score": 0.0431
  },
  {
    "Residue Sequence": "UAUUCUUACUGAUCGUUUG against FLI1",
    "seed-corrected z-score": -6.54
  },
  {
    "Residue Sequence": "AAGUUUUCCAACGUACUCU against IL4",
    "seed-corrected z-score": 0.239
  },
  {
    "Residue Sequence": "UUGGUUUAAAGUUAAGUUG against C5orf63",
    "seed-corrected z-score": -2.45
  },
  {
    "Residue Sequence": "UGCAAUAGCAGAGUAUUCC against UBE2Q1",
    "seed-corrected z-score": 0.662
  },
  {
    "Residue Sequence": "AGGUGGAAGAGAAAUAUCU against OR4D11",
    "seed-corrected z-score": -0.264
  },
  {
    "Residue Sequence": "UGAUCUAUGAGUACGUCCG against SBNO1",
    "seed-corrected z-score": -0.107
  },
  {
    "Residue Sequence": "AUCUGGUUGCUUUUUAUCC against FAM60A",
    "seed-corrected z-score": -3.49
  },
  {
    "Residue Sequence": "UUACAUCCAAUUGUAAAGG against C5orf22",
    "seed-corrected z-score": -2.74
  },
  {
    "Residue Sequence": "UAAGCGUAUCUGGAAUUAC against UGCG",
    "seed-corrected z-score": 0.00222
  },
  {
    "Residue Sequence": "UCCCGUACCAAGGGUAGCU against FAM78B",
    "seed-corrected z-score": 0.456
  },
  {
    "Residue Sequence": "UUUCAGCUAAUGCAUUUUG against VIP",
    "seed-corrected z-score": -3.11
  },
  {
    "Residue Sequence": "UCUGUAACCUUGGUAAGGC against C10orf2",
    "seed-corrected z-score": 0.0621
  },
  {
    "Residue Sequence": "UUAGUUGCUGACUUUCUCC against TRAPPC9",
    "seed-corrected z-score": -2.06
  },
  {
    "Residue Sequence": "AUUCAUAGAAGUAUUCUGC against WIF1",
    "seed-corrected z-score": -0.598
  },
  {
    "Residue Sequence": "UCAGGAGCAAAGCUUCUUC against VNN3",
    "seed-corrected z-score": 0.325
  },
  {
    "Residue Sequence": "AGAGUUGUUGUCAUCUUCC against CACNA1S",
    "seed-corrected z-score": -0.313
  },
  {
    "Residue Sequence": "UCAGGAUAAAGAUUGUCGC against KDM4A",
    "seed-corrected z-score": 1.62
  },
  {
    "Residue Sequence": "UCUAGAUCAUGAAUGCUCC against ZNF25",
    "seed-corrected z-score": 1.08
  },
  {
    "Residue Sequence": "UUACUUAGAGGAGAUACCA against IGFBP7",
    "seed-corrected z-score": -0.294
  },
  {
    "Residue Sequence": "AGAGUUGUCAGAAGGGCGG against NCR2",
    "seed-corrected z-score": -5.82
  },
  {
    "Residue Sequence": "UCCGUUUUUGAGAAACUUG against PNLDC1",
    "seed-corrected z-score": -0.423
  },
  {
    "Residue Sequence": "UUUGAAAUUUGUCAGGUCU against PQLC2L",
    "seed-corrected z-score": -0.634
  },
  {
    "Residue Sequence": "AAUGCGACGAGACAAGAUG against WASF2",
    "seed-corrected z-score": 0.812
  },
  {
    "Residue Sequence": "UGUUGUAGCACUCCAACGC against PRKDC",
    "seed-corrected z-score": -4.34
  },
  {
    "Residue Sequence": "UAUUAGCACAGUGUAAGGC against PDE10A",
    "seed-corrected z-score": -0.276
  },
  {
    "Residue Sequence": "UCCACGUCAAAUUUAUCCC against SPAG1",
    "seed-corrected z-score": 0.232
  },
  {
    "Residue Sequence": "AUAGGUUCCUGUCUGUUGG against PYCRL",
    "seed-corrected z-score": 0.415
  },
  {
    "Residue Sequence": "UGAGAUGAACUGAUCUUGC against OR10W1",
    "seed-corrected z-score": 0.324
  },
  {
    "Residue Sequence": "CUUCAUAGUGGUGUCCACG against MUC3B",
    "seed-corrected z-score": -0.292
  },
  {
    "Residue Sequence": "UAUUGUGCAAUUUGGUGGG against KLF13",
    "seed-corrected z-score": 0.422
  },
  {
    "Residue Sequence": "AAUUUGACCUCAUCCAUUU against FAM47C",
    "seed-corrected z-score": -0.798
  }
]
